test.system: unphosphorylated PDGFRβ kinase (uPDGFRβ, Seq. ID No. 3) (Homo sapiens, UniProt P09619)
Sequence (P09619 557-1106): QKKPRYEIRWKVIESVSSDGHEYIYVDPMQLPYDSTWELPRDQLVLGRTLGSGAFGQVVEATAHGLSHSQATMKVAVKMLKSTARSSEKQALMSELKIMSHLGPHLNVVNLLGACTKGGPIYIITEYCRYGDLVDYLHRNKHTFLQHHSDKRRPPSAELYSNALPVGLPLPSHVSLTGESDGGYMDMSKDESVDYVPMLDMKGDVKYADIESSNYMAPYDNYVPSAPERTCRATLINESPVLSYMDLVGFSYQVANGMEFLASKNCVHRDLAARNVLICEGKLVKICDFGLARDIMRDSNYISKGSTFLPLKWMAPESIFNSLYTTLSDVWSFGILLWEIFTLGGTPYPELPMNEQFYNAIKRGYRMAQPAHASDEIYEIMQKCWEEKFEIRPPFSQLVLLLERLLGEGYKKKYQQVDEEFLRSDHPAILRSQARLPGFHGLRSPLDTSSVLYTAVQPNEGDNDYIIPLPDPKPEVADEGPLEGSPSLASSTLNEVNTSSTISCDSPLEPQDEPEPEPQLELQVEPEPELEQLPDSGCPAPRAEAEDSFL
protocol: biochemical
experimental.setup: uPDGFRb, enzymatic assay, ATP 500 μM
measured.metric: IC50

Below: 3 molecules and their reported IC50.
> print(dat)
                                   molecule                               test.system  recorded.value
1  Cn1cc(-c2cc(Oc3ccc(NC(=O)NC(=O)C4CCCC4)nc3)ccn2)cn1  unphosphorylated PDGFRβ kinase (uPDGFRβ, Seq. ID No. 3) (Homo sapiens, UniProt P09619)  100 to 1000 nM
2  CCn1cc(-c2cc(Oc3ccc(NC(=O)NC(=O)C(C)(C)OC)nc3)ccn2)cn1  unphosphorylated PDGFRβ kinase (uPDGFRβ, Seq. ID No. 3) (Homo sapiens, UniProt P09619)       > 1000 nM
3  Cc1ccc(-c2cc(Oc3ccc(NC(=O)NC(=O)C(C)(C)C)nc3)ccn2)cn1  unphosphorylated PDGFRβ kinase (uPDGFRβ, Seq. ID No. 3) (Homo sapiens, UniProt P09619)  100 to 1000 nM

The reported value for `Cn1cc(-c2cc(Oc3ccc(NC(=O)NC(=O)C(C)(C)C)nc3)ccn2)cn1` in terms of IC50 is 100 to 1000 nM

The molecule listed as Cn1cc(-c2cc(Oc3ccc(NC(=O)NC(=O)CC4CC5CCC4C5)nc3)ccn2)cn1 (centres unmarked) shows IC50 equal to < 10 nM

GET /value?item= Cc1cc(-c2cc(Oc3ccc(NC(=O)NC(=O)C4CCOC4)nc3)ccn2)ccn1 (centres unmarked) &field=IC50 returns > 1000 nM

So, `COC1(C(=O)NC(=O)Nc2ccc(Oc3ccnc(-n4cnc(C)c4)c3)cn2)CCCC1` ? Its IC50 was 100 to 1000 nM

The molecule `CCC(=O)NC(=O)Nc1ccc(Oc2ccnc(-c3cn(C)cn3)c2)cn1` showed IC50 equal to > 1000 nM

###

test.system: unphosphorylated c-KIT kinase (uKIT, Seq. ID no. 2) (Homo sapiens, UniProt P10721)
Sequence (P10721 with tags, fused parts or gaps): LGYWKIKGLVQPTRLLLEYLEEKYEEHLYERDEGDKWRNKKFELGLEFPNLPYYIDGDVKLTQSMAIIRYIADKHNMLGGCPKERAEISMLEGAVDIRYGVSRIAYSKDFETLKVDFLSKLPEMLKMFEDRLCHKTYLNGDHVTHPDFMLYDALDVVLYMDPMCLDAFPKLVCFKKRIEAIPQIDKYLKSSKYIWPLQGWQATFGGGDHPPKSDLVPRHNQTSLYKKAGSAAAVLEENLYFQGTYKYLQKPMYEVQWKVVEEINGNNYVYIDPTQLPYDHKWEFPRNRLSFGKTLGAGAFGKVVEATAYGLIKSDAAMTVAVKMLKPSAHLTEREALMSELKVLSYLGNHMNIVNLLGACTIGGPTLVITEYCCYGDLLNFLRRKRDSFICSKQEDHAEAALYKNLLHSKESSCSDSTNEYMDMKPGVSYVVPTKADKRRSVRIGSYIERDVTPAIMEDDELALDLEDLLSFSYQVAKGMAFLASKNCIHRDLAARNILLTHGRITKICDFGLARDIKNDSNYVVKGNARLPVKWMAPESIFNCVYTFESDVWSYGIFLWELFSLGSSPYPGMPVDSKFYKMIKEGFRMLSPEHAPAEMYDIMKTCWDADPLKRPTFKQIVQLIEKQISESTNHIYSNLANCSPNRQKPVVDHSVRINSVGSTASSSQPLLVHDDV
protocol: biochemical
experimental.setup: uKIT, enzymatic assay, ATP 2000 μM
pIC50: −log10 of the molar value.
measured.metric: pIC50

Completed entries (count: 2):
> print(dat)
                                   molecule  measured.metric  recorded.value
1  COC1(C(=O)NC(=O)Nc2ccc(Oc3ccnc(-n4cnc(C)c4)c3)cn2)CCCC1 [Example 154]            pIC50          < 6.00
2  Cc1cc(NC(=O)NC(=O)C2(C)CCOCC2)nc(C)c1Oc1ccnc(-c2cnn(C)c2)c1 [Example 165]            pIC50    6.00 to 7.00

pIC50 measured on COC(C)(C)C(=O)NC(=O)Nc1ccc(Oc2ccnc(-c3cnc(C(C)C)[nH]3)c2)cn1 [Example 173] = < 6.00

Lab note: measured pIC50 of Cc1cc(NC(=O)NC(=O)C(C)C)ncc1Oc1ccnc(-c2cnn(C)c2)c1 [Example 88] was 7.00 to 8.00

GET /value?item= Cn1cc(-c2cc(Oc3ccc(NC(=O)NC(=O)C(C)(C)C)nc3)ccn2)cn1 [Example 26] &field=pIC50 returns 6.00 to 7.00

The reported pIC50 of the molecule CC(C)c1nc(-c2cc(Oc3ccc(NC(=O)NC(=O)C(C)(C)C)nc3)ccn2)c[nH]1 [Example 169] was < 6.00

Lookup result for Cn1cc(-c2cc(Oc3ccc(NC(=O)NC(=O)C4CC5CCC4O5)nc3)ccn2)cn1 (centres unmarked) [Example 111] ; measured pIC50: 6.00 to 7.00

Item: CCn1cc(-c2cc(Oc3ccc(NC(=O)NC(=O)C(C)C)nc3C)ccn2)cn1 [Example 61] | pIC50: < 6.00
